# Measurement Target: CDK6/cyclinD3 human (Homo sapiens)
# Sequence (Q00534 whole entry): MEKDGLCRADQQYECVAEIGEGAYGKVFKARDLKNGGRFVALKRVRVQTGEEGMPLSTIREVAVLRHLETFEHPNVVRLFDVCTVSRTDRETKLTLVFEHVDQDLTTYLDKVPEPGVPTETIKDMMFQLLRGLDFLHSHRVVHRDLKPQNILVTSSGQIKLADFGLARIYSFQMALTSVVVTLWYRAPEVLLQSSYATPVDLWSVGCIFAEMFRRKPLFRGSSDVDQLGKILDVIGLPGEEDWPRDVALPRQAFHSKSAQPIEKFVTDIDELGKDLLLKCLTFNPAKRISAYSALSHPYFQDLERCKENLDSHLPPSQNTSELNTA
# Sequence (P30281 whole entry partner): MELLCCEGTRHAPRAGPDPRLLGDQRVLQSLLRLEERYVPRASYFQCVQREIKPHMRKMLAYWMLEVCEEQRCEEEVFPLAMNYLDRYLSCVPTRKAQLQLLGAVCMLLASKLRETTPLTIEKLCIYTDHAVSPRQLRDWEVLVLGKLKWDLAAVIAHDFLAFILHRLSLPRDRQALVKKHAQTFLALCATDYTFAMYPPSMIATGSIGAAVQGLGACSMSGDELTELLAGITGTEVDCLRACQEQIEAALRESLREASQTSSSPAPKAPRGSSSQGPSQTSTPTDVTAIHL
# Method Summary: Kinase profiling C3.7 CDK6/cyclinD3 human
# Assay type: biochemical
# Cond: CDK6/cyclinD3, test concentration of 10^−6 M
Measurement Kind: C3.7 score

Illustrative cases are given below, each with its answer.
Please tell me: C3.7 score of O=C1NCCCc2cc(ccn2)-c2ncnc(n2)Nc2cccc(c2)CN2CCCC1C2 (centres unmarked) , system CDK6/cyclinD3 human (Homo sapiens)?
1 (Score 1 = 10-30% inhibition)

Next compound up: O=C1CN2CCN(CC2)Cc2cc(Cl)cc(c2)Nc2ncnc(n2)-c2ccnc(c2)CCCN1
1 (Score 1 = 10-30% inhibition)

Next compound up: O=C1CC2CCN(CCCc3cc(ccn3)-c3ncnc(n3)Nc3cccc(c3)CCN1)CC2
1 (Score 1 = 10-30% inhibition)

Next compound up: CCN1CC(=O)NCCCc2cccc(c2)-c2ncnc(n2)Nc2cccc(c2)C1
1 (Score 1 = 10-30% inhibition)

Next compound up: O=C1NCCCc2cc(ccc2F)-c2ncnc(n2)Nc2cc(Cl)cc(c2)CN[C@H]1CO
2 (Score 2 = 30-60% inhibition)

Please state, for each entry, its recorded C3.7 score.
1. CN1CC(=O)NCCCc2cc(ccn2)-c2ncnc(n2)Nc2cc(Cl)cc(c2)C1
2. O=C1CCN2CCN(CC2)Cc2cccc(c2)Nc2ncnc(n2)-c2ccnc(c2)NCCN1

["3 (Score 3 = 60-80% inhibition)", "2 (Score 2 = 30-60% inhibition)"]

====

# Measurement Target: CDK2/cyclinE (h) (Homo sapiens)
# Method Summary: Kinase profiling C3.4 CDK2/cyclinE human
# Format: biochemical
# Cond: test concentration of 10^−6 M
Measurement Kind: C3.4 score

Illustrative cases are given below, each with its answer.
For O=C1CCN2CCN(CC2)Cc2cccc(c2)Nc2ncnc(n2)-c2ccnc(c2)NCCCN1 [Compound 22] , what is its reported C3.4 score?
4 (Score 4 = >80% inhibition)

Next compound up: O=C1CN2CCN(CC2)Cc2cccc(c2)Nc2ncnc(n2)-c2ccnc(c2)CCCN1 [Compound 9]
4 (Score 4 = >80% inhibition)

Next compound up: O=C1NCCc2cccc(c2)Nc2ncnc(n2)-c2ccnc(c2)CCCN2C[C@H](O)C[C@@H]12 [Compound 25]
4 (Score 4 = >80% inhibition)

Please state, for each entry, its recorded C3.4 score.
1. CN1CC(=O)NCC#Cc2cc(ccn2)-c2ncnc(n2)Nc2cccc(c2)C1 [Compound 1]
2. CN1CCC(=O)NCCCc2cc(ccn2)-c2ncnc(n2)Nc2cccc(c2)C1 [Compound 3]
3. CN1CC(=O)NCCCc2cc(ccn2)-c2ncnc(n2)Nc2cccc(c2)C1 [Compound 8]
4. CN1CCCc2cc(ccn2)-c2ncnc(n2)Nc2cccc(c2)CNC(=O)C1 [Compound 7]
5. O=C1CC2CCN(CCCc3cc(ccn3)-c3ncnc(n3)Nc3cccc(c3)CCN1)CC2 [Compound 27]
6. O=C1CN2CCN(CC2)Cc2cccc(c2)Nc2ncnc(n2)-c2ccnc(c2)CCCN1 [Compound 36]
7. CCN1CC(=O)NCCCc2cccc(c2)-c2ncnc(n2)Nc2cccc(c2)C1 [Compound 54]

["4 (Score 4 = >80% inhibition)", "4 (Score 4 = >80% inhibition)", "4 (Score 4 = >80% inhibition)", "4 (Score 4 = >80% inhibition)", "2 (Score 2 = 30-60% inhibition)", "4 (Score 4 = >80% inhibition)", "4 (Score 4 = >80% inhibition)"]

Please state, for each entry, its recorded C3.4 score.
1. O=C1NCCCc2cccc(c2)-c2ncnc(n2)Nc2cccc(c2)CN[C@H]1CO [Compound 46]
2. O=C1NCCCc2cc(ccn2)-c2ncnc(n2)Nc2cccc(c2)CN2C[C@H](O)C[C@@H]12 [Compound 14]
3. O=C1NCCCc2cncc(c2)-c2ncnc(n2)Nc2cccc(c2)CN[C@H]1CO [Compound 81]
4. CN1CC(=O)NCCCc2cc(ccn2)-c2ncnc(n2)Nc2cccc(c2)C1 [Compound 10]
5. CN1CC(=O)NCCCc2cc(ccn2)-c2ncnc(n2)Nc2cc(Cl)cc(c2)C1 [Compound 33]
6. O=C1CN2CCN(CC2)Cc2cccc(c2)Nc2ncnc(n2)-c2cccc(c2)CCCN1 [Compound 52]

1. 4 (Score 4 = >80% inhibition)
2. 1 (Score 1 = 10-30% inhibition)
3. 4 (Score 4 = >80% inhibition)
4. 4 (Score 4 = >80% inhibition)
5. 4 (Score 4 = >80% inhibition)
6. 4 (Score 4 = >80% inhibition)

For CN1CCCC(=O)NCCc2cccc(c2)Nc2ncnc(n2)-c2ccnc(c2)CCC1 [Compound 24] , what is its reported C3.4 score?
3 (Score 3 = 60-80% inhibition)

====

# Measurement Target: CDK3/cyclinE (h) (Homo sapiens, UniProt Q00526)
# Method Summary: Kinase profiling C3.5 CDK3/cyclinE human
# Assay type: biochemical
# Cond: test concentration of 10^−6 M
Measurement Kind: C3.5 score

For O=C1NCCCc2cccc(c2)-c2ncnc(n2)Nc2cccc(c2)CN[C@H]1CO [Compound 46] , what is its reported C3.5 score?
4 (Score 4 = >80% inhibition)

Next compound up: CN1CC(=O)NCCCc2cc(ccn2)-c2ncnc(n2)Nc2cccc(c2)C1 [Compound 10]
4 (Score 4 = >80% inhibition)

Next compound up: O=C1CN2CCN(CC2)Cc2cccc(c2)Nc2ncnc(n2)-c2ccnc(c2)CCCN1 [Compound 36]
3 (Score 3 = 60-80% inhibition)

Shift focus to the following entry.
For CN1CCCC(=O)NCCc2cccc(c2)Nc2ncnc(n2)-c2ccnc(c2)CCC1 [Compound 24] , what is its reported C3.5 score?
2 (Score 2 = 30-60% inhibition)

====

# Measurement Target: UniProt P49840
# Sequence (P49840 whole entry, species assumed): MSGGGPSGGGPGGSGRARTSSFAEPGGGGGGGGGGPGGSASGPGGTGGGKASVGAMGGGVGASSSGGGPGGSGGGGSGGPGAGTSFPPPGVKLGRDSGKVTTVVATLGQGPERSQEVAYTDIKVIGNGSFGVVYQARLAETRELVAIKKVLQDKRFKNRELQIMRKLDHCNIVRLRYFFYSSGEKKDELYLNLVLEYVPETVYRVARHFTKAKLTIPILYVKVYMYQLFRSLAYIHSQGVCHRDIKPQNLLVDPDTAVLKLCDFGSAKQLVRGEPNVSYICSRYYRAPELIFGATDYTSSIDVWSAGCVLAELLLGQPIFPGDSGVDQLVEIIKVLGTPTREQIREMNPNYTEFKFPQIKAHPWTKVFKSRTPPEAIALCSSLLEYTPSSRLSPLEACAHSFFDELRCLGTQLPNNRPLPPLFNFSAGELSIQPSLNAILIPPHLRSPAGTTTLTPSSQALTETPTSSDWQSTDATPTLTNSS
Kindly supply the reported IC50 values for the records listed here.

For C[C@@H]1NCc2cccc(c2)Nc2ncnc(n2)-c2cccc(c2)NCCNC1=O [Compound 63] , what is its reported IC50?
100 to 1000 nM

Next compound up: O=C1NCCCc2cccc(c2)-c2ncnc(n2)Nc2cccc(c2)CN[C@H]1CO [Compound 46]
< 10 nM

Next compound up: CN1CCCc2cc(ccc2F)-c2ncnc(n2)Nc2cccc(c2)CNC(=O)C1 [Compound 70]
< 10 nM

Next compound up: CCN1CC(=O)NCCCc2cccc(c2)-c2ncnc(n2)Nc2cccc(c2)C1 [Compound 54]
< 10 nM

Next compound up: CN1CCC(=O)NCCNc2cc(ccn2)-c2ncnc(n2)Nc2cccc(c2)C1 [Compound 20]
100 to 1000 nM

Next compound up: CN1CCCc2cc(ccn2)-c2ncnc(n2)Nc2cccc(c2)CNC(=O)C1 [Compound 7]
< 10 nM

Please state, for each entry, its recorded IC50.
1. CN1CCC(=O)NCCCc2cccc(c2)-c2ncnc(n2)Nc2cccc(c2)C1 [Compound 49]
2. O=C1NCCCc2cccc(c2)-c2ncnc(n2)Nc2cccc(c2)CN2CCC1CC2 [Compound 51]
3. CN1CC(=O)NCCNc2cc(ccn2)-c2ncnc(n2)Nc2cccc(c2)C1 [Compound 4]
4. O=C1NCCCc2cncc(c2)-c2ncnc(n2)Nc2cccc(c2)CN[C@H]1CO [Compound 81]

1. 10 to 100 nM
2. 10 to 100 nM
3. 10 to 100 nM
4. < 10 nM

Please state, for each entry, its recorded IC50.
1. O=C1CN2CCN(CC2)Cc2cccc(c2)Nc2ncnc(n2)-c2cncc(c2)CCCN1 [Compound 84]
2. O=C1CCN2CCN(CC2)Cc2cccc(c2)Nc2ncnc(n2)-c2cccc(c2)CCCN1 [Compound 57]
3. O=C1COc2cccc(c2)Nc2ncnc(n2)-c2ccnc(c2)CCCN1 [Compound 74]
4. CN1CC(=O)NCCCNc2cc(ccn2)-c2ncnc(n2)Nc2cccc(c2)C1 [Compound 5]
5. CCN1CC(=O)NCCCc2cc(ccn2)-c2ncnc(n2)Nc2cc(Cl)cc(c2)C1 [Compound 34]
6. CN1CCC(=O)NCCNc2cc(ccn2)-c2ncnc(n2)Nc2cccc(c2)C1 [Compound 17]
7. CN1CC(=O)NCC#Cc2cc(ccn2)-c2ncnc(n2)Nc2cccc(c2)C1 [Compound 1]

["< 10 nM", "100 to 1000 nM", "10 to 100 nM", "10 to 100 nM", "< 10 nM", "10 to 100 nM", "< 10 nM"]

Please state, for each entry, its recorded IC50.
1. O=C1CN2CCN(CC2)Cc2cccc(c2)Nc2ncnc(n2)-c2cccc(c2)NCCN1 [Compound 58]
2. O=C1NCCc2cccc(c2)Nc2ncnc(n2)-c2ccnc(c2)CCCN2CCCC1C2 (stereo not drawn) [Compound 26]
3. O=C1CN2CCN(CC2)Cc2cccc(c2)Nc2ncnc(n2)-c2ccnc(c2)CCCN1 [Compound 36]
4. CC1(C)NCc2cccc(c2)Nc2ncnc(n2)-c2cccc(c2)CCCNC1=O [Compound 48]

["10 to 100 nM", "10 to 100 nM", "< 10 nM", "100 to 1000 nM"]

====

# Measurement Target: CDK2/cyclinA (h) (Homo sapiens)
# Method Summary: Kinase profiling C3.3 CDK2/cyclinA human
# Assay type: biochemical
# Cond: test concentration of 10^−6 M
Measurement Kind: C3.3 score

Illustrative cases are given below, each with its answer.
For O=C1NCCCc2cc(ccn2)-c2ncnc(n2)Nc2cccc(c2)CN2CCCC1C2 (centres unmarked) , what is its reported C3.3 score?
2 (Score 2 = 30-60% inhibition)

Next compound up: CN1CCN(CCN2CCC(=O)NCCCc3cc(ccn3)-c3ncnc(n3)Nc3cccc(c3)C2)CC1
1 (Score 1 = 10-30% inhibition)

Next compound up: CN1Cc2cccc(c2)Nc2ncnc(n2)-c2ccnc(c2)NCCCNC(=O)CCN2CCC1CC2
3 (Score 3 = 60-80% inhibition)

Next compound up: O=C1CN2CCN(CC2)Cc2cccc(c2)Nc2ncnc(n2)-c2cncc(c2)CCCN1
2 (Score 2 = 30-60% inhibition)

Next compound up: O=C1CN2CCN(CC2)Cc2cccc(c2)Nc2ncnc(n2)-c2cccc(c2)CCCN1
4 (Score 4 = >80% inhibition)

Please state, for each entry, its recorded C3.3 score.
1. CN1CCC(=O)NCCNc2cc(ccn2)-c2ncnc(n2)Nc2cccc(c2)C1 [Compound 20]
2. CN1CCCc2cc(ccn2)-c2ncnc(n2)Nc2cccc(c2)CNC(=O)C1
3. O=C1NCCc2cccc(c2)Nc2ncnc(n2)-c2ccnc(c2)CCCN2C[C@H](O)C[C@@H]12
4. CN1CCC(=O)NCCCc2cc(ccn2)-c2ncnc(n2)Nc2cc(Cl)cc(c2)C1
5. O=C1CN2CCN(CC2)Cc2cc(Cl)cc(c2)Nc2ncnc(n2)-c2ccnc(c2)CCCN1
6. CCN1CC(=O)NCCCc2cccc(c2)-c2ncnc(n2)Nc2cccc(c2)C1

4 (Score 4 = >80% inhibition)
4 (Score 4 = >80% inhibition)
4 (Score 4 = >80% inhibition)
4 (Score 4 = >80% inhibition)
4 (Score 4 = >80% inhibition)
4 (Score 4 = >80% inhibition)

Please state, for each entry, its recorded C3.3 score.
1. O=C1CN2CCN(CC2)Cc2cccc(c2)Nc2ncnc(n2)-c2ccnc(c2)CCCN1 [Compound 9]
2. O=C1CCN2CCN(CC2)Cc2cccc(c2)Nc2ncnc(n2)-c2ccnc(c2)NCCCN1
3. O=C1CN2CCN(CC2)Cc2cccc(c2)Nc2ncnc(n2)-c2cccc(c2)NCCN1
4. O=C1NCCc2cccc(c2)Nc2ncnc(n2)-c2ccnc(c2)CCCN2CCCC1C2 (centres unmarked)

4 (Score 4 = >80% inhibition)
4 (Score 4 = >80% inhibition)
3 (Score 3 = 60-80% inhibition)
3 (Score 3 = 60-80% inhibition)

Please state, for each entry, its recorded C3.3 score.
1. O=C1NCCNc2cc(ccn2)-c2ncnc(n2)Nc2cccc(c2)CN2CCC[C@H]12
2. CN1CCCC(=O)NCCCc2cc(ccn2)-c2ncnc(n2)Nc2cccc(c2)C1

1. 4 (Score 4 = >80% inhibition)
2. 2 (Score 2 = 30-60% inhibition)
